Data credit: the NIST ThermoML archive (doi:10.1016/j.fluid.2006.03.015)

- run_description: molar heat capacity at constant pressure
- test_parameters: 358.15 K; 101.33 kPa; Liquid; modulated-temperature differential scanning calorimetry MDSC
Reported molar heat capacity at constant pressure values are given for each entry in this list.
The answer is to be given in J/K/mol; state only the numeric part.

Sample answers from the record:
CCCCn1cc[n+](C)c1.O=S(=O)([O-])C(F)(F)F [1-butyl-3-methylimidazolium trifluoromethanesulfonate]	458
CCn1cc[n+](C)c1.O=S(=O)([O-])C(F)(F)F [1-ethyl-3-methylimidazolium trifluoromethanesulfonate]	404
CCCC[n+]1ccccc1.O=S(=O)([N-]S(=O)(=O)C(F)(F)F)C(F)(F)F [1-butylpyridinium bis[(trifluoromethyl)sulfonyl]imide]	621
CCCCCC[n+]1ccn(C)c1.O=S(=O)([N-]S(=O)(=O)C(F)(F)F)C(F)(F)F	698
CCCCCCn1cc[n+](C)c1.O=S(=O)([O-])C(F)(F)F [1-hexyl-3-methylimidazolium trifluoromethanesulfonate]	535

# evaluate next
Dear colleague, I am looking for the recorded molar heat capacity at constant pressure of the following compound: CCCCCCCCn1cc[n+](C)c1.O=S(=O)([O-])C(F)(F)F [1-octyl-3-methylimidazolium trifluoromethanesulfonate]
619

---

- run_description: molar heat capacity at constant pressure
- test_parameters: 345.15 K; 101.33 kPa; Liquid; Small sample (50 mg) DSC
Exam item: assign Met to entries whose molar heat capacity at constant pressure is below 500 J/K/mol and Not met to entries at or above 500 J/K/mol. Note that a value of exactly 500 J/K/mol receives Not met.

// below: answered compounds
CCn1cc[n+](C)c1.O=S(=O)([O-])C(F)(F)F [1-ethyl-3-methylimidazolium trifluoromethanesulfonate]	Met
O	Met

# evaluate next
Is molar heat capacity at constant pressure strictly under 500 J/K/mol for the entry CCCCCCCCn1cc[n+](C)c1.O=S(=O)([O-])C(F)(F)F [1-octyl-3-methylimidazolium trifluoromethanesulfonate] ?
Not met

---

- run_description: molar heat capacity at constant pressure
- test_parameters: 403.15 K; 101.33 kPa; Liquid; modulated-temperature differential scanning calorimetry MDSC
± gives the expanded uncertainty stated by the source.
Reported molar heat capacity at constant pressure values are given for each entry in this list.

Sample answers from the record:
CCCC[n+]1ccccc1.O=S(=O)([N-]S(=O)(=O)C(F)(F)F)C(F)(F)F [1-butylpyridinium bis[(trifluoromethyl)sulfonyl]imide]	640 ± 32 J/K/mol
CCCCCCn1cc[n+](C)c1.O=S(=O)([O-])C(F)(F)F [1-hexyl-3-methylimidazolium trifluoromethanesulfonate]	556 ± 28 J/K/mol
CCn1cc[n+](C)c1.O=S(=O)([O-])C(F)(F)F [1-ethyl-3-methylimidazolium trifluoromethanesulfonate]	418 ± 21 J/K/mol

Dear colleague, I am looking for the recorded molar heat capacity at constant pressure of the following compound: CCCCCC[n+]1ccn(C)c1.O=S(=O)([N-]S(=O)(=O)C(F)(F)F)C(F)(F)F
720 ± 36 J/K/mol

Dear colleague, I am looking for the recorded molar heat capacity at constant pressure of the following compound: CCCCCCCCn1cc[n+](C)c1.O=S(=O)([O-])C(F)(F)F [1-octyl-3-methylimidazolium trifluoromethanesulfonate]
645 ± 32 J/K/mol

Dear colleague, I am looking for the recorded molar heat capacity at constant pressure of the following compound: CCCCn1cc[n+](C)c1.O=S(=O)([O-])C(F)(F)F [1-butyl-3-methylimidazolium trifluoromethanesulfonate]
476 ± 24 J/K/mol
